Exercise: state measured Enthalpy of desolvation, ΔdesolvH from DSC for each of the compounds provided.
- assayProtocol: Desolvation of solvates by DSC and TGA
- Format: physicochemical
- conditions: from DSC
// return numeric value only (unit: kcal/mol, not printed)

# get_value(readout='Enthalpy of desolvation, ΔdesolvH from DSC', item= CC(C)(C)O.CC(C)c1c(C(=O)Nc2ccccc2)c(-c2ccccc2)c(-c2ccc(F)cc2)n1CC[C@@H](O)C[C@@H](O)CC(=O)[O-].CC(C)c1c(C(=O)Nc2ccccc2)c(-c2ccccc2)c(-c2ccc(F)cc2)n1CC[C@@H](O)C[C@@H](O)CC(=O)[O-].CC(C)c1c(C(=O)Nc2ccccc2)c(-c2ccccc2)c(-c2ccc(F)cc2)n1CC[C@@H](O)C[C@@H](O)CC(=O)[O-].CC(C)c1c(C(=O)Nc2ccccc2)c(-c2ccccc2)c(-c2ccc(F)cc2)n1CC[C@@H](O)C[C@@H](O)CC(=O)[O-].[Ca+2].[Ca+2] [Solvate IV] )
18.85

Likewise for CC(C)c1c(C(=O)Nc2ccccc2)c(-c2ccccc2)c(-c2ccc(F)cc2)n1CC[C@@H](O)C[C@@H](O)CC(=O)[O-].CC(C)c1c(C(=O)Nc2ccccc2)c(-c2ccccc2)c(-c2ccc(F)cc2)n1CC[C@@H](O)C[C@@H](O)CC(=O)[O-].CO.[Ca+2] [Solvate V] ?
6.279

Likewise for CC(C)c1c(C(=O)Nc2ccccc2)c(-c2ccccc2)c(-c2ccc(F)cc2)n1CC[C@@H](O)C[C@@H](O)CC(=O)[O-].CC(C)c1c(C(=O)Nc2ccccc2)c(-c2ccccc2)c(-c2ccc(F)cc2)n1CC[C@@H](O)C[C@@H](O)CC(=O)[O-].CCCCO.[Ca+2] [Solvate VIII] ?
6.826

###

- assayProtocol: Desolvation of solvates by DSC and TGA
- Type: physicochemical
- conditions: equation 1 from DSC desolvation enthalpy and TGA mass loss
- Protocol: The desolvation temperatures account for the stability of solvates as the desolvation temperature in all these forms is much higher than the boiling point of the corresponding solvent. […] Loss of solvent from the samples was characterized by TGA obtained by TA Instruments-Waters LLC, USA. TGA traces were recorded at heating rates of 10°C per minute under a nitrogen purge of 50 ml per minute. Samples with masses between 1–10 mg were analyzed using platinum pan. […]
experimentalReadout: Enthalpy of desolvation per mole of solvent (binding energy) (kcal/mol)
// return numeric value only (unit: kcal/mol, not printed)

# get_value(readout='Enthalpy of desolvation per mole of solvent (binding energy)', item= CC(C)c1c(C(=O)Nc2ccccc2)c(-c2ccccc2)c(-c2ccc(F)cc2)n1CC[C@@H](O)C[C@@H](O)CC(=O)[O-].CC(C)c1c(C(=O)Nc2ccccc2)c(-c2ccccc2)c(-c2ccc(F)cc2)n1CC[C@@H](O)C[C@@H](O)CC(=O)[O-].CC(C)c1c(C(=O)Nc2ccccc2)c(-c2ccccc2)c(-c2ccc(F)cc2)n1CC[C@@H](O)C[C@@H](O)CC(=O)[O-].CC(C)c1c(C(=O)Nc2ccccc2)c(-c2ccccc2)c(-c2ccc(F)cc2)n1CC[C@@H](O)C[C@@H](O)CC(=O)[O-].CCO.O.O.[Ca+2].[Ca+2] [Solvate VII] )
25.48

###

- assayProtocol: Enthalpy of solution by microreaction calorimetry
- Type: physicochemical
- conditions: each solvate in its own solvent of solvation, 25°C
experimentalReadout: Molar enthalpy of solution in its own solvent, Solvates (ΔsolH^2) (kJ/mol)
// return numeric value only (unit: kJ/mol, not printed)

# get_value(readout='Molar enthalpy of solution in its own solvent, Solvates (ΔsolH^2)', item= CC(C)c1c(C(=O)Nc2ccccc2)c(-c2ccccc2)c(-c2ccc(F)cc2)n1CC[C@@H](O)C[C@@H](O)CC(=O)[O-].CC(C)c1c(C(=O)Nc2ccccc2)c(-c2ccccc2)c(-c2ccc(F)cc2)n1CC[C@@H](O)C[C@@H](O)CC(=O)[O-].CCCCO.[Ca+2] [Solvate VIII] )
-4.6

Likewise for CC(C)c1c(C(=O)Nc2ccccc2)c(-c2ccccc2)c(-c2ccc(F)cc2)n1CC[C@@H](O)C[C@@H](O)CC(=O)[O-].CC(C)c1c(C(=O)Nc2ccccc2)c(-c2ccccc2)c(-c2ccc(F)cc2)n1CC[C@@H](O)C[C@@H](O)CC(=O)[O-].CCO.[Ca+2] [Solvate III] ?
-7.61

Likewise for CC(C)O.CC(C)c1c(C(=O)Nc2ccccc2)c(-c2ccccc2)c(-c2ccc(F)cc2)n1CC[C@@H](O)C[C@@H](O)CC(=O)[O-].CC(C)c1c(C(=O)Nc2ccccc2)c(-c2ccccc2)c(-c2ccc(F)cc2)n1CC[C@@H](O)C[C@@H](O)CC(=O)[O-].CC(C)c1c(C(=O)Nc2ccccc2)c(-c2ccccc2)c(-c2ccc(F)cc2)n1CC[C@@H](O)C[C@@H](O)CC(=O)[O-].CC(C)c1c(C(=O)Nc2ccccc2)c(-c2ccccc2)c(-c2ccc(F)cc2)n1CC[C@@H](O)C[C@@H](O)CC(=O)[O-].[Ca+2].[Ca+2] [Solvate I] ?
-24.45
